Test system: PPARg DBDmut:RXRa IVT, anti-PPARg (DBD mutation: PPARg1 K132A/R137A, NR concentration 270 nM, RXRa partner concentration 90 nM)
Assay: PBM binding z-score (relative to random genomic background probes); higher = stronger binding; sequences stand for … in GC…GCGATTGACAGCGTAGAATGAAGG
// PBM binding z-score lookup, one value per entry
Give a plain numeric answer without units written out.

For the sequence shown here, `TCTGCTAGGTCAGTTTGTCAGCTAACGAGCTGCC` , give the reported PBM binding z-score.
0.124

How about `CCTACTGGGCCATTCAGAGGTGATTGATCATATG` ?
0.186

How about `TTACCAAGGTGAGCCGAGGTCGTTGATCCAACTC` ?
0.0524

How about `AATACAGGGTCACTAGGCGAGAGTAGGTACGAAT` ?
1.72

How about `CGTCCAAGGTCAAGGTCCGTGAAAGAGACTCGAA` ?
0.152

How about `CGTCCAGGGTCAGAGAGGTCAGTGAATGCCGAGT` ?
-0.324

How about `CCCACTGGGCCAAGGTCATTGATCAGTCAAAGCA` ?
-0.866

How about `CGTCCAAGGTCAATGCTGGGTCAGTGAAAGCATT` ?
-0.934

How about `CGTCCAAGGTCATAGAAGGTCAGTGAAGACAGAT` ?
0.653

How about `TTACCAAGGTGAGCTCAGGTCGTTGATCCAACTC` ?
0.00673

How about `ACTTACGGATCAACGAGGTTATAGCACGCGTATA` ?
0.823

How about `AGTCAAAGTTCAGGACGAAGTAACGTAAAGCACG` ?
0.781

* * *

Test system: RARg:RXRa (NR concentration 270 nM, RXRa partner concentration 90 nM)
Assay: PBM binding z-score (relative to random genomic background probes); higher = stronger binding; sequences stand for … in GC…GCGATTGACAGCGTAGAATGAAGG
experimental.endpoint: PBM binding z-score
Give a plain numeric answer without units written out.

Recorded PBM binding z-score, per entry:
sequence.chain	system.name	PBM binding z-score
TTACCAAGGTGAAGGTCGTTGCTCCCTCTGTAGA	RARg:RXRa (NR concentration 270 nM, RXRa partner concentration 90 nM)	1.25
AGAATGAGGTTATTAAGATCAGGGCATTGCGGTC	RARg:RXRa (NR concentration 270 nM, RXRa partner concentration 90 nM)	1.47
CCTATTAGATGACCATAAGGGCAACCGAAGCTCG	RARg:RXRa (NR concentration 270 nM, RXRa partner concentration 90 nM)	1.02
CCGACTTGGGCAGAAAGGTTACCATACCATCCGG	RARg:RXRa (NR concentration 270 nM, RXRa partner concentration 90 nM)	0.806
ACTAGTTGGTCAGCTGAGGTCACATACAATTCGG	RARg:RXRa (NR concentration 270 nM, RXRa partner concentration 90 nM)	3.83
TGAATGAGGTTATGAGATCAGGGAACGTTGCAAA	RARg:RXRa (NR concentration 270 nM, RXRa partner concentration 90 nM)	1.6

Given the entry `CCGACGGGGGCATAAGGTTACCATAAGCCAGCCC` , what PBM binding z-score was observed with RARg:RXRa (NR concentration 270 nM, RXRa partner concentration 90 nM)?
4.76

How about `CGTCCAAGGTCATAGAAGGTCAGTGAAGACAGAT` ?
6.7

How about `CCAGACAGCTGAAAGGTAACTCAGTCTGGTACGC` ?
-0.0986

How about `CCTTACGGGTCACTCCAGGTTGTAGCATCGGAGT` ?
4.14

How about `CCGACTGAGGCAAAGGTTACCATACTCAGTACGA` ?
1.73

How about `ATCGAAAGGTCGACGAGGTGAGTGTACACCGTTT` ?
4.45
